targetEntity: EGFR (Homo sapiens, UniProt P00533)
Construct: Add 7 ug A431 cell lysate per well (EGFR source); endogenous in cells; host or cells: A431
Sequence (P00533 25-1210): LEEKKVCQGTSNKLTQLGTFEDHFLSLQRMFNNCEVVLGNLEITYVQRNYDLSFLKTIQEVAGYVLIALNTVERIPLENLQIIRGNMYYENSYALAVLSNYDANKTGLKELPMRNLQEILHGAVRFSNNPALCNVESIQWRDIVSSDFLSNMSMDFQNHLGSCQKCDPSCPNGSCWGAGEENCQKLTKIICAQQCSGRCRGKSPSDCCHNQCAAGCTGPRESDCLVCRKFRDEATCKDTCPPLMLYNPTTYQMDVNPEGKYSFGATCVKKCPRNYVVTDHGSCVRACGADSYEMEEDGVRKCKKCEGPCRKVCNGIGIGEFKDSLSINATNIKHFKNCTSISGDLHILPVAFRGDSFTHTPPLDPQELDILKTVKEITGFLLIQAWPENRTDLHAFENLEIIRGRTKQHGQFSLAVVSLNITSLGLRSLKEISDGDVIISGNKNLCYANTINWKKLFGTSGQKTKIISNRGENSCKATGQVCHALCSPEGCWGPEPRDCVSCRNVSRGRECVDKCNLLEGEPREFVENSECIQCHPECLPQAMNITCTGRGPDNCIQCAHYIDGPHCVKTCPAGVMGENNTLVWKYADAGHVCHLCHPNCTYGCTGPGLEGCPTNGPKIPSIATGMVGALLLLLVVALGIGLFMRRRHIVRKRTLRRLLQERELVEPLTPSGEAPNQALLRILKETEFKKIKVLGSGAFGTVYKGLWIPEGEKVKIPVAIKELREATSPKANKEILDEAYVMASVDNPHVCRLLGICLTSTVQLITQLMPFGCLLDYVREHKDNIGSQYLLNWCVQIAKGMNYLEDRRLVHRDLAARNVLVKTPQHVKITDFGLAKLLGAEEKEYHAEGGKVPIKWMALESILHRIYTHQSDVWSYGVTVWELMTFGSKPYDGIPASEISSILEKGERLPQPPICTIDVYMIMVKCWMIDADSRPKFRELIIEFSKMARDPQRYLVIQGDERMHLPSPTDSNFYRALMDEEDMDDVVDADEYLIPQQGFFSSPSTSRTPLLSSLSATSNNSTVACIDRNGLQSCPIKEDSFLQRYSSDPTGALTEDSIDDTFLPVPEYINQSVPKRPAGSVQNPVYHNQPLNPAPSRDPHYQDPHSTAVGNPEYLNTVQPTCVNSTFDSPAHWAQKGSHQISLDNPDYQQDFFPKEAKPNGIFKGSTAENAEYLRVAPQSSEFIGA
testDetails: EGFR ELISA assay (in vitro kinase activity, EGFR captured from A431 cell lysate)
Assay type: biochemical
Design: concentration or dose not given beside the values
Source text: To provide a consistent method for measuring the in vitro kinase activity of the EGFR in an Enzyme-linked immunosorbent assay (Elisa). Scope. The following protocol describes the procedures used to analyze protein tyrosine kinase activity on the EGFR in an Elisa. The procedure also describes the protocol for the initial screening of drugs for inhibition or activation of protein tyrosine kinase activity. Reagents and Supplies. • 1. […]

{"molecule": "O=C1Nc2c(Br)cc(Br)cc2C1=Cc1c(O)cc(O)cc1O [10722/A03]", "targetEntity": "EGFR (Homo sapiens, UniProt P00533)", "Biochem EGFR %Inhibition / %": 0.8}
{"molecule": "CNS(=O)(=O)c1ccc2c(c1)C(=Cc1cc(Cl)c(O)c(C(C)(C)C)c1)C(=O)N2 [10722/D08]", "targetEntity": "EGFR (Homo sapiens, UniProt P00533)", "Biochem EGFR %Inhibition / %": -2.6}
{"molecule": "O=C1Nc2ccc(I)cc2C1=Cc1ccc(F)cc1 [10717/B05]", "targetEntity": "EGFR (Homo sapiens, UniProt P00533)", "Biochem EGFR %Inhibition / %": 31.7}
{"molecule": "CNS(=O)(=O)c1ccc2c(c1)C(=Cc1ccc(O)c(O)c1)C(=O)N2 [10719/D03]", "targetEntity": "EGFR (Homo sapiens, UniProt P00533)", "Biochem EGFR %Inhibition / %": 95.7}
{"molecule": "O=C1Nc2c(Br)cc(Br)cc2C1=Cc1ccc2c(c1)Cc1ccccc1-2 [10728/A06]", "targetEntity": "EGFR (Homo sapiens, UniProt P00533)", "Biochem EGFR %Inhibition / %": 17.2}
{"molecule": "O=CN1CCN(c2ccc(C=C3C(=O)Nc4ccc(S(=O)(=O)N5CCOCC5)cc43)cc2)CC1 [10725/F07]", "targetEntity": "EGFR (Homo sapiens, UniProt P00533)", "Biochem EGFR %Inhibition / %": 16.4}
{"molecule": "CCOC(=O)c1[nH]c(C=C2C(=O)Nc3c(Br)cc(Br)cc32)c(C(=O)OC)c1C [10726/A03]", "targetEntity": "EGFR (Homo sapiens, UniProt P00533)", "Biochem EGFR %Inhibition / %": -12.5}
{"molecule": "CNS(=O)(=O)c1ccc2c(c1)C(=Cc1cc(OC)ccc1OC)C(=O)N2 [10728/D02]", "targetEntity": "EGFR (Homo sapiens, UniProt P00533)", "Biochem EGFR %Inhibition / %": 9.9}
{"molecule": "COc1ccc(OC)c(C=C2C(=O)Nc3ccc(I)cc32)c1 [10728/B02]", "targetEntity": "EGFR (Homo sapiens, UniProt P00533)", "Biochem EGFR %Inhibition / %": -10.5}

###

targetEntity: EGFR (Homo sapiens, UniProt P00533)
Construct: Add 7 ug A431 cell lysate per well (EGFR source); endogenous in cells; host or cells: A431
testDetails: EGFR ELISA assay (in vitro kinase activity, EGFR captured from A431 cell lysate)
Format: biochemical
Design: concentration or dose not given beside the values
Each record here notes measured Biochem EGFR %Inhibition.

{"smi": "Cn1cccc1C=C1C(=O)Nc2ccc(I)cc21", "Biochem EGFR %Inhibition [%]": 10.3}
{"smi": "O=C1Nc2c(Br)cc(Br)cc2C1=Cc1coc2c(Br)cc(Br)cc2c1=O", "Biochem EGFR %Inhibition [%]": 1.1}
{"smi": "O=C1Nc2ccc(I)cc2C1=Cc1ccco1", "Biochem EGFR %Inhibition [%]": 13.7}
{"smi": "O=C1Nc2ccc(S(=O)(=O)Nc3ccc(C(F)(F)F)cc3)cc2C1=Cc1sccc1Br", "Biochem EGFR %Inhibition [%]": 4.3}
{"smi": "CCc1cc(CC)c(C=C2C(=O)Nc3ccc(Br)c(C)c32)[nH]1", "Biochem EGFR %Inhibition [%]": 14.6}
{"smi": "Cc1c(Br)ccc2c1C(=Cc1cc(Br)c(OCc3ccccc3)c(C(C)(C)C)c1)C(=O)N2", "Biochem EGFR %Inhibition [%]": 1.6}
{"smi": "COc1ccc2[nH]cc(C=C3C(=O)Nc4ccc(CCCl)cc43)c2c1", "Biochem EGFR %Inhibition [%]": 8.9}
{"smi": "CNS(=O)(=O)c1ccc2c(c1)C(=Cc1ccc(SC)s1)C(=O)N2", "Biochem EGFR %Inhibition [%]": 14.8}
{"smi": "O=C1Nc2ccc(CCCl)cc2C1=Cc1cccs1", "Biochem EGFR %Inhibition [%]": 18.8}
{"smi": "N#Cc1ccc(C=C2C(=O)Nc3ccc(I)cc32)cc1", "Biochem EGFR %Inhibition [%]": 31.7}
{"smi": "CCOc1ccccc1C=C1C(=O)Nc2ccc(S(=O)(=O)N3CCOCC3)cc21", "Biochem EGFR %Inhibition [%]": 6.2}
{"smi": "CNS(=O)(=O)c1ccc2c(c1)C(=Cc1cc3ccccc3nc1Cl)C(=O)N2", "Biochem EGFR %Inhibition [%]": 44.9}
{"smi": "CNS(=O)(=O)c1ccc2c(c1)C(=Cc1ccc(Cl)s1)C(=O)N2", "Biochem EGFR %Inhibition [%]": 23.0}
{"smi": "O=C1Nc2ccc(CCCl)cc2C1=Cc1cccnc1", "Biochem EGFR %Inhibition [%]": 6.0}
{"smi": "Cn1cc(Cl)c(C=C2C(=O)Nc3ccc(S(=O)(=O)N4CCOCC4)cc32)n1", "Biochem EGFR %Inhibition [%]": 7.0}
{"smi": "COc1cccc(OC)c1C=C1C(=O)Nc2ccc(I)cc21", "Biochem EGFR %Inhibition [%]": -36.6}
{"smi": "Cc1c(Br)ccc2c1C(=Cc1ccc3c(c1)Cc1ccccc1-3)C(=O)N2", "Biochem EGFR %Inhibition [%]": 4.2}
{"smi": "COc1cc(OC)c(OC)cc1C=C1C(=O)Nc2ccc(I)cc21", "Biochem EGFR %Inhibition [%]": 46.8}
{"smi": "Cc1c(Br)ccc2c1C(=Cc1cc(Cl)c(OCc3ccccc3)c(C(C)(C)C)c1)C(=O)N2", "Biochem EGFR %Inhibition [%]": 1.2}
{"smi": "CCn1c2ccccc2c2cc(C=C3C(=O)Nc4c(Br)cc(Br)cc43)ccc21", "Biochem EGFR %Inhibition [%]": 14.8}
{"smi": "COc1ccc(OC)c(C=C2C(=O)Nc3ccc(S(=O)(=O)NN4CCOCC4)cc32)c1", "Biochem EGFR %Inhibition [%]": 4.4}
{"smi": "O=C1Nc2ccc(CCCl)cc2C1=Cc1cccn1-c1ccc(Cl)cc1", "Biochem EGFR %Inhibition [%]": -21.7}
{"smi": "O=C1Nc2ccc(S(=O)(=O)Nc3ccc(C(F)(F)F)cc3)cc2C1=Cc1cc2c(cc1Cl)OCO2", "Biochem EGFR %Inhibition [%]": -9.3}
{"smi": "CNS(=O)(=O)c1ccc2c(c1)C(=Cc1cc(C)n[nH]1)C(=O)N2", "Biochem EGFR %Inhibition [%]": -19.7}
{"smi": "CCN(CC)c1ccc(C=C2C(=O)Nc3c(Br)cc(Br)cc32)c(O)c1", "Biochem EGFR %Inhibition [%]": 22.6}
{"smi": "O=C1Nc2ccc(I)cc2C1=Cc1cc2ccccc2o1", "Biochem EGFR %Inhibition [%]": 44.0}
{"smi": "COc1cccc(O)c1C=C1C(=O)Nc2ccc(I)cc21", "Biochem EGFR %Inhibition [%]": 16.1}
{"smi": "Cc1cc(C=C2C(=O)Nc3ccc(CCCl)cc32)cc(C(C)(C)C)c1O", "Biochem EGFR %Inhibition [%]": 60.6}
{"smi": "CNS(=O)(=O)c1ccc2c(c1)C(=Cc1cc(O)c3c(c1O)CCCC3)C(=O)N2", "Biochem EGFR %Inhibition [%]": 18.5}
{"smi": "O=C1Nc2ccc(I)cc2C1=Cc1ncc[nH]1", "Biochem EGFR %Inhibition [%]": 22.4}
{"smi": "N#Cc1ccc(C=C2C(=O)Nc3c(Br)cc(Br)cc32)cc1", "Biochem EGFR %Inhibition [%]": 12.7}
{"smi": "O=C1Nc2ccc(S(=O)(=O)N3CCOCC3)cc2C1=Cc1ccc(Br)o1", "Biochem EGFR %Inhibition [%]": -26.8}
{"smi": "O=C1Nc2ccc(S(=O)(=O)N3CCOCC3)cc2C1=Cc1cc2c(cc1Cl)OCO2", "Biochem EGFR %Inhibition [%]": 4.9}
{"smi": "O=C1Nc2ccc(S(=O)(=O)N3CCOCC3)cc2C1=Cc1cc([N+](=O)[O-])cc(CCl)c1O", "Biochem EGFR %Inhibition [%]": 21.7}
{"smi": "O=C1Nc2ccc(I)cc2C1=Cc1cc2c([nH]1)CCCC2", "Biochem EGFR %Inhibition [%]": 76.8}
{"smi": "O=C1Nc2ccc(I)cc2C1=Cc1ccccc1Sc1ccc(Cl)cc1", "Biochem EGFR %Inhibition [%]": 39.0}
{"smi": "COc1ccc2[nH]cc(C=C3C(=O)Nc4ccc(S(=O)(=O)Nc5ccc(C(F)(F)F)cc5)cc43)c2c1", "Biochem EGFR %Inhibition [%]": 17.2}
